Tested on: Dreissena Polimorfa Larvae
Test: Toxicity test LC50 on Dreissena Polimorfa larvae
Conditions: in vivo
quantity: LC50 Dreissena Polimorfa Larvae (ppm)
The figure you give is taken to be in ppm; do not add the unit.

Solved cases below.
CC1(S(=O)(=O)O)CC(=O)c2ccccc2C1=O.Cc1cc(C)[nH]c(=O)n1 (centres unmarked) [MPB, menadione dimethylpirymidinol bisulfite]; 1
CC1=CC(=O)c2c(O)cccc2C1=O [2-methyl-5-hydroxy-1,4-naphthalenedione]; 0.2
Cc1ccc2c(c1)C(=O)c1ccccc1C2=O [2-methyl-anthraquinone]; 200

Query string: Param item = CC1(S(=O)(=O)O)CC(=O)c2ccccc2C1=O.NC(=O)c1cccnc1 (centres unmarked) [MNB, menadione nicotinamide bisulfite] ; retrieve measured LC50 Dreissena Polimorfa Larvae.
Result string: 1

Query string: # iterate: CC1=CC(=O)c2ccccc2C1=O [Menadione, 2-methyl-1,4-naphthalenedione, reference compound]
Result string: 500

* * *

Experiment: Hydrolysis test performed in darkness
Format: physicochemical
Conditions: PH 9, in darkness
# maps each entry to its ½ LIFE, hydrolysis

Solved cases below.
CC1(S(=O)(=O)O)CC(=O)c2ccccc2C1=O.Cc1cc(C)[nH]c(=O)n1 (stereo not shown) [MPB, menadione dimethylpirymidinol bisulfite]; <3 h
CC1(S(=O)(=O)O)CC(=O)c2ccccc2C1=O.NC(=O)c1cccnc1 (stereo not shown) [MNB, menadione nicotinamide bisulfite]; <3 h
CC1=CC(=O)c2ccccc2C1=O [Menadione, 2-methyl-1,4-naphthalenedione, reference compound]; 550 h

Now take the following compound into account.
Query string: Param item = O=C1C=CC(=O)c2c(O)cccc21 [Juglone, 5-hydroxy-1,4-naphthalenedione, reference compound] ; retrieve measured ½ LIFE, hydrolysis.
Result string: 15 h

* * *

Experiment: Photodegradability in sunlight and UV light
Type: physicochemical
Conditions: 10-ppm solution in drinking water (pH 6.5-7.5)
quantity: Light exp. Total Degr. (h)
The figure you give is taken to be in h; do not add the unit.

Solved cases below.
O=C1C=CC(=O)c2c(O)cccc21 [Juglone, 5-hydroxy-1,4-naphthalenedione, reference compound]; 48
CC1(S(=O)(=O)O)CC(=O)c2ccccc2C1=O.NC(=O)c1cccnc1 (stereo not shown) [MNB, menadione nicotinamide bisulfite]; 48

Query string: Param item = CC1(S(=O)(=O)O)CC(=O)c2ccccc2C1=O.Cc1cc(C)[nH]c(=O)n1 (stereo not shown) ; retrieve measured Light exp. Total Degr..
Result string: 48
